- System: HeLa/DDP cells
- EXPERIMENT NOTES: MTT assay, cisplatin-resistant HeLa/DDP cells
- Format: cell-based, human
- CONDITION SUMMARY: Homo sapiens; cisplatin-resistant HeLa/DDP cells, single agent, 48 h; read-out: 48h IC50 HeLa/DDP
RESULT TYPE: log10 IC50 (log10 of the value in µM)

MOLECULE	log10 IC50
O=C(/C=C/c1ccccc1)c1ccccc1	1.96
COc1cccc2c1C(=O)c1c(O)c3c(c(O)c1C2=O)C[C@@](O)(C(=O)CO)C[C@@H]3O[C@H]1C[C@H](N)[C@H](O)[C@H](C)O1	1.62
CC(=O)O[C@H]1C(=O)[C@@]2(C)[C@H]([C@H](OC(=O)c3ccccc3)[C@]3(O)C[C@H](OC(=O)[C@H](O)[C@@H](NC(=O)c4ccccc4)c4ccccc4)C(C)=C1C3(C)C)[C@]1(OC(C)=O)CO[C@@H]1C[C@@H]2O [Paclitaxel, reference compound]	2.10
COc1cc(O)c(C(=O)/C=C/c2ccc(CN3CCC(C)CC3)cc2)cc1CN1CCC(O)CC1	0.89
COc1cc(O)c(C(=O)/C=C/c2ccc(CN3CCC(C)CC3)cc2)cc1CN1CCCC1	1.24

* * *

- Test system: SiHa cells
- EXPERIMENT NOTES: MTT antiproliferative assay, SiHa cells
- Assay type: cell-based, human
- CONDITION SUMMARY: Homo sapiens, 48 h, mean ± SD
pIC50: −log10 of the molar value.
Items are presented alongside their recorded pIC50.

GIVEN SMILES	QUALIFIER	pIC50
COc1cc(O)c(C(=O)/C=C/c2ccc(CN3CCC(C)CC3)cc2)cc1CN1CCC(O)CC1	=	5.10
COc1cc(O)c(C(=O)/C=C/c2ccc(CN3CCCC3)cc2)cc1CN1CCC(O)CC1	=	4.35
COc1cc(O)c(C(=O)/C=C/c2ccc(CN3CCCC3)cc2)cc1CN1CCC(C)CC1	=	4.44
COc1cc(O)c(C(=O)/C=C/c2ccc(CN3CCC(O)CC3)cc2)cc1CN1CCCC1	=	4.11
COc1cc(O)c(C(=O)/C=C/c2ccc(CN3CCN(C)CC3)cc2)cc1CN1CCCC1	<	4.00

* * *

Items are presented alongside their recorded pIC50.
- Tested on: SiHa cells
- EXPERIMENT NOTES: MTT antiproliferative assay, SiHa cells
- Assay type: cell-based, human
- CONDITION SUMMARY: Homo sapiens, 48 h, mean ± SD
pIC50: −log10 of the molar value.

COMPOUND	QUALIFIER	pIC50
COc1cc(O)c(C(=O)/C=C/c2ccc(CN3CCOCC3)cc2)cc1CN1CCC(O)CC1 [6e]	<	4.00
COc1cc(O)c(C(=O)/C=C/c2ccc(CN3CCN(C)CC3)cc2)cc1CN1CCC(C)CC1 [6t]	=	4.44
COc1cc(O)c(C(=O)/C=C/c2ccc(CN3CCC(OC)CC3)cc2)cc1CN1CCC(O)CC1 [6b]	=	4.24
CNC(=O)c1cc(Oc2ccc(NC(=O)Nc3ccc(Cl)c(C(F)(F)F)c3)cc2)ccn1 [Sorafenib, reference compound]	=	4.82
COc1cc(O)c(C(=O)/C=C/c2ccc(CN3CCOCC3)cc2)cc1CN1CCC(OC)CC1 [6h]	<	4.00
COc1cc(O)c(C(=O)/C=C/c2ccc(CN3CCOCC3)cc2)cc1CN1CCOCC1 [6n]	<	4.00
COc1cc(O)c(C(=O)/C=C/c2ccc(CN3CCC(OC)CC3)cc2)cc1CN1CCOCC1 [6p]	=	4.18
COc1cc(O)c(C(=O)/C=C/c2ccc(CN3CCC(O)CC3)cc2)cc1CN1CCC(O)CC1 [6a]	<	4.00
COc1cc(O)c(C(=O)/C=C/c2ccc(CN3CCOCC3)cc2)cc1CN1CCCC1 [6j]	=	4.32
COc1cc(O)c(C(=O)/C=C/c2ccc(CN3CCN(C)CC3)cc2)cc1CN1CCC(O)CC1 [6d]	<	4.00
COc1cc(O)c(C(=O)/C=C/c2ccc(CN3CCC(C)CC3)cc2)cc1CN1CCC(OC)CC1 [6g]	=	4.07
COc1cc(O)c(C(=O)/C=C/c2ccc(CN3CCC(OC)CC3)cc2)cc1CN1CCCC1 [6l]	<	4.00
COc1cc(O)c(C(=O)/C=C/c2ccc(CN3CCOCC3)cc2)cc1CN1CCC(C)CC1 [6q]	<	4.00
COc1cc(O)c(C(=O)/C=C/c2ccc(CN3CCC(C)CC3)cc2)cc1CN1CCN(C)CC1 [6u]	=	4.55
COc1cc(O)c(C(=O)/C=C/c2ccc(CN3CCC(C)CC3)cc2)cc1CN1CCC(C)CC1 [6r]	=	4.44
O=C(/C=C/c1ccccc1)c1ccccc1 [Chalcone]	=	4.18
COc1cc(O)c(C(=O)/C=C/c2ccc(CN3CCC(C)CC3)cc2)cc1CN1CCCC1 [6k]	=	4.61
COc1cc(O)c(C(=O)/C=C/c2ccc(CN3CCC(C)CC3)cc2)cc1CN1CCOCC1 [6o]	=	4.20
